Cited source: patent US7238779B2

- Tested on: ACAT-2 protein
- Measurement Notes: inhibition of ACAT-2 protein activity
- Type: biochemical
- Condition Summary: general statement, concentration not given
Recorded Endpoint: activity of the ACAT-2 protein is inhibited by the compound

Below, each entry is followed by its recorded activity of the ACAT-2 protein is inhibited by the compound result.
>>> result("CC(C)c1cccc(C(C)C)c1NC(=O)NCC1(c2ccc(N(C)C)cc2)CCCC1.Cl [PD 132301-2]")
"inhibited"
>>> result("O=S(=O)(F)Cc1ccccc1 [PMSF]")
"inhibited"
>>> result("O=C(O)c1cc[c]([Hg][OH])cc1 [PHMB]")
"inhibited"
>>> result("CC(=O)[C@H]1CC[C@H]2[C@@H]3CCC4=CC(=O)CC[C@]4(C)[C@H]3CC[C@]12C [progesterone]")
"inhibited"
>>> result("CCCCCCCCCCC(C)(C)C(=O)Nc1c(OC)cc(OC)cc1OC [CI-976]")
"inhibited"

Kindly review the next compound as well.
Input: Return reported activity of the ACAT-2 protein is inhibited by the compound; argument: CC(C)c1cc(C(C)C)c(CC(=O)NS(=O)(=O)Oc2c(C(C)C)cccc2C(C)C)c(C(C)C)c1 [CI-1011]
Output: inhibited
